# credit: patent US20240384350A1

target: EGFR T725M (Homo sapiens, UniProt P00533, T725M); construct: expressed in transfected cells; host or cells: Ba/F3 cells, retroviral pBabe-Puro vector (vector made by GeneScript from EGFR WT); assay: Ba/F3 drug screening, Cell Titer Glo, IC50 Mut/WT; type: cell-based; details: Classical-Like, 72 hours
readout-kind: ratio of IC50 for cells with mutant EGFR to IC50 for cells with wildtype EGFR (Mut/WT)

Lab book: ratio of IC50 for cells with mutant EGFR to IC50 for cells with wildtype EGFR (Mut/WT) of C=CC(=O)N[C@H]1C=C(C)c2c(-c3cnc4ccccc4c3)c3c(N)ncnc3n2C1 noted as 0.02572

P. C=CC(=O)Nc1cc(Nc2nccc(-c3c[nH]c4ccccc34)n2)c(OC)cc1N(C)CCN(C)C
Q. COc1cc2ncnc(Nc3cccc(Cl)c3F)c2cc1OC(=O)N1CCN(C)C[C@H]1C
R. COc1cc2ncnc(Nc3ccc(F)c(Cl)c3)c2cc1NC(=O)/C=C/CN1CCCCC1
Give the ascending ranking of the items by reported ratio of IC50 for cells with mutant EGFR to IC50 for cells with wildtype EGFR (Mut/WT). Use the labels to give the ranking in the order requested. R, Q, P
